# Tgt: Serine/threonine-protein kinase Nek9 (Homo sapiens) (UniProt Q8TD19)
# Sequence (Q8TD19 whole entry): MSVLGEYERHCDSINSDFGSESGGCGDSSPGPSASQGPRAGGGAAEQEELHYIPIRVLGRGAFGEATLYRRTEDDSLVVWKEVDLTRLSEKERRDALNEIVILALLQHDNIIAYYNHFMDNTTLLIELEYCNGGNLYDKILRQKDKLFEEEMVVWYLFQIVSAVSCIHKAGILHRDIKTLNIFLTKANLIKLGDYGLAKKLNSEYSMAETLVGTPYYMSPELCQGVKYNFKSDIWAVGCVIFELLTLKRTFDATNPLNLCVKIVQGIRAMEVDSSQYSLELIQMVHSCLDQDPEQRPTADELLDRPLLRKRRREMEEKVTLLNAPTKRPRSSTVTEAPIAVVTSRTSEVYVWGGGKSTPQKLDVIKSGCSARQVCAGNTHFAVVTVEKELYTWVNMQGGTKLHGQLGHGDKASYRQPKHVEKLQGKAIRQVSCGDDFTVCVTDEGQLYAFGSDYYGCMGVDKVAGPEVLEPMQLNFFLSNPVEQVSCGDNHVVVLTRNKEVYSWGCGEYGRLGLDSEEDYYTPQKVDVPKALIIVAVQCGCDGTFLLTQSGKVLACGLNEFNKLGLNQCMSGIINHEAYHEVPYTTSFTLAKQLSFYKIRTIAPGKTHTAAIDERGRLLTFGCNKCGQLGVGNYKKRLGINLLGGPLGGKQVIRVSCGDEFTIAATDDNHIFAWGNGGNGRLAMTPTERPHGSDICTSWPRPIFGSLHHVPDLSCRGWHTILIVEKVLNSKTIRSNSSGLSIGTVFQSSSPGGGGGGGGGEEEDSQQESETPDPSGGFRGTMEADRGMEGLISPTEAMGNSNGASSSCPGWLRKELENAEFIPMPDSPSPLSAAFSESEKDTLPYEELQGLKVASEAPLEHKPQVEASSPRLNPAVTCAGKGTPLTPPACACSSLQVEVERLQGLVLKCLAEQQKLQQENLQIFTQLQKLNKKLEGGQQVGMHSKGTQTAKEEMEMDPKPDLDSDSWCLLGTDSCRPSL
# Measurement Setup: at 0.1 µM
Assay Metric: inhibition (%)
The answer is to be given in %; state only the numeric part.

In the examples that follow, each entry is paired with its recorded inhibition.
INSERT INTO measurements (smi, value_units, observed) VALUES
  ('CCn1c(-c2nonc2N)nc2c(C#CC(C)(C)O)nc(OC[C@H](N)c3ccccc3)cc21', '%', 6.95),
  ('O=C(O[C@H]1CN[C@H](C#Cc2cc3ncnc(Nc4ccc(Cc5ccccc5)cc4)c3s2)C1)N1CCOCC1', '%', 4.6),
  ('COc1cccc(-c2c[nH]c3c(N/N=C/c4ccncc4)ncnc23)c1', '%', 4.67),
  ('CCn1c(-c2nonc2N)nc2ccccc21', '%', 0.97),
  ('Nc1ncc(-c2cccc(S(N)(=O)=O)c2)c2scc(-c3ccc(F)c(Cl)c3)c12', '%', 5.04),
  ('Cc1ccc(O)cc1Nc1ccnc2cc(-c3ccccn3)ccc12', '%', 2.78);

Task: What value of measured inhibition is listed for Nc1nc(-c2ccc(F)cc2)c(-c2ccc3ncccc3n2)s1 ?
Output: 11.5

---

# Tgt: Serine/threonine-protein kinase MARK1 (Homo sapiens)
# Measurement Setup: at 0.1 µM
# Description: GSK_PKIS: MARK1 mean inhibition at 0.1 uM [Nanosyn]
Readings of inhibition for the listed molecules
The answer is to be given in %; state only the numeric part.

In the examples that follow, each entry is paired with its recorded inhibition.
INSERT INTO measurements (smi, tgt, observed) VALUES
  ('NS(=O)(=O)c1ccc(Nc2ncc(-c3ccccc3)o2)cc1', 'Serine/threonine-protein kinase MARK1 (Homo sapiens)', 3.62),
  ('Clc1ccc(-c2nn3ncccc3c2-c2ccnc(Nc3ccccc3)n2)cc1', 'Serine/threonine-protein kinase MARK1 (Homo sapiens)', 1.31),
  ('CCc1nn2ncccc2c1-c1ccnc(NC2CC2)n1', 'Serine/threonine-protein kinase MARK1 (Homo sapiens)', 0.89),
  ('CC(C)COC(=O)c1ccc2c(c1)/C(=C/Nc1ccc(S(N)(=O)=O)cc1)C(=O)N2', 'Serine/threonine-protein kinase MARK1 (Homo sapiens)', 42.7),
  ('CN1CCC(n2cnc(-c3ccc(F)cc3)c2-c2ccnc(Nc3ccccc3)n2)CC1', 'Serine/threonine-protein kinase MARK1 (Homo sapiens)', 1.99),
  ('O=C(Nc1n[nH]c2cc(-c3ccc(F)cc3)ccc12)C1CC1', 'Serine/threonine-protein kinase MARK1 (Homo sapiens)', 3.81),
  ('CCn1c(-c2nonc2N)nc2c(C#CC(C)(C)O)ncc(OC3CCNCC3)c21', 'Serine/threonine-protein kinase MARK1 (Homo sapiens)', 20.8),
  ('Fc1cccc(COc2ccc(Nc3ncnc4sc(-c5ccco5)cc34)cc2Cl)c1', 'Serine/threonine-protein kinase MARK1 (Homo sapiens)', 2.72);

Task: What value of measured inhibition is listed for CCN1CCC(CC(=O)Nc2n[nH]c3nnc(-c4cccc(F)c4F)cc23)CC1 ?
Output: 1.89

Task: Now consider CCCN1CCC(c2ccc(Nc3nc(Nc4cc(F)ccc4C(N)=O)c4cc[nH]c4n3)c(OC)c2)CC1 .
Output: 9.11

Task: Now consider c1ccc(-c2nc3n(c2-c2ccc4c(c2)OCO4)CCC3)nc1 .
Output: 1.87

Task: Now consider COc1ccc2c(-c3ccnc(Nc4cccc(OC(F)(F)F)c4)n3)cnn2n1 .
Output: 2.92

Task: Now consider CN1CCC(n2cnc(-c3ccc(F)cc3)c2-c2ccnc(N)n2)CC1 .
Output: 1.8

Task: Now consider N#Cc1c(NC(=O)CN2CCOCC2)sc2c1CCCC2 .
Output: 4.32

---

# Tgt: Serine/threonine-protein kinase Chk1 (Homo sapiens) (UniProt O14757)
# Sequence (O14757 whole entry): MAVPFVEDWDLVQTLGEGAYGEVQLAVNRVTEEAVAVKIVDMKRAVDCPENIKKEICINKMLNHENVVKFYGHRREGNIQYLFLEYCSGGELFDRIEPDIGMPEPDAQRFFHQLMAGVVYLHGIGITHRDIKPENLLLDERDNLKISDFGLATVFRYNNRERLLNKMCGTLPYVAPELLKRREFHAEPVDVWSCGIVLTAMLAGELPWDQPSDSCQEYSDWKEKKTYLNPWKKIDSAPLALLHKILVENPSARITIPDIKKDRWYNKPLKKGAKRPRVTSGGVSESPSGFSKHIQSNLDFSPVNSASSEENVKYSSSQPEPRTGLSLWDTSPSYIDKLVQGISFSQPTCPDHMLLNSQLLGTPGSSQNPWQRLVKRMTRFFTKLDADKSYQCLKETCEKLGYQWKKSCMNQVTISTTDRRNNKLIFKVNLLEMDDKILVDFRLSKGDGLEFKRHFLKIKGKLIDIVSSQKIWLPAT
# Measurement Setup: at 0.1 µM
Assay Metric: inhibition (%)
The answer is to be given in %; state only the numeric part.

INSERT INTO results (smi, assay_metric, observed) VALUES
  ('CCn1cc(-c2ccnc3[nH]ccc23)c(-c2cccc(NC(=O)Nc3ccc(OCc4ccccc4)cc3)c2)n1', 'inhibition', 1.82),
  ('Cc1cccc(Nc2ncc(-c3ccccc3)o2)c1', 'inhibition', 4.59),
  ('COc1cc2c(cc1Nc1nc(Nc3ccsc3C(N)=O)c3cc[nH]c3n1)N(C(=O)CN(C)C)CCC2(C)C', 'inhibition', -0.75),
  ('CS(=O)(=O)CCNCc1ccc(-c2ccc3ncnc(Nc4ccc(OCc5ccccc5)c(C(F)(F)F)c4)c3c2)o1', 'inhibition', 8.46),
  ('Fc1ccc(-c2nn3ncccc3c2-c2ccnc(Nc3ccc4c(c3)OCCO4)n2)cc1', 'inhibition', 1.26),
  ('Fc1cccc(COc2ccc(Nc3ncnc4sc(-c5ccco5)cc34)cc2Cl)c1', 'inhibition', 10.1);

Task: What value of measured inhibition is listed for c1ccc(-c2nc3n(c2-c2ccc4c(c2)OCO4)CCC3)nc1 ?
Output: 3.23

Task: Now consider COc1ccc(CNC(=O)c2ccc(-c3cc(-c4nnc(C)o4)ccc3C)cc2)cc1 .
Output: 6.78

Task: Now consider Nc1nc(-c2cccc(Cl)c2)c(-c2ccc3ncccc3n2)s1 .
Output: 9.85

Task: Now consider CCOc1ccc2c(-c3ccnc(Nc4cccc(C(F)(F)F)c4)n3)cnn2n1 .
Output: 3.49

Task: Now consider Nc1ncc(-c2cccc(S(N)(=O)=O)c2)c2scc(-c3ccc(F)c(Cl)c3)c12 .
Output: 5.24

Task: Now consider c1cc(-c2cnn3nc(N4CCOCC4)ccc23)nc(NC2CC2)n1 .
Output: 3.63

Task: Now consider COc1cc(Nc2nccc(Nc3ccc4c(C)n[nH]c4c3)n2)cc(OC)c1OC .
Output: 1.45

Task: Now consider NC(=O)c1sc(-n2cnc3ccc(C(F)(F)F)cc32)cc1OCc1ccccc1Br .
Output: -3.21

Task: Now consider COC(=O)Nc1nc2ccc(S(=O)(=O)c3ccc(NC(=O)Nc4cc(C(F)(F)F)ccc4F)cc3)cc2[nH]1 .
Output: 1.24

Task: Now consider CCn1c(-c2nonc2N)nc2ccccc21 .
Output: 6.35

Task: Now consider COC(=O)Nc1nc2ccc(Oc3ccc(NC(=O)Nc4cccc(Cl)c4)cc3)cc2[nH]1 .
Output: -1.18

Task: Now consider COc1cc(/C=N/Nc2ncnc3[nH]ncc23)ccc1O .
Output: 26.1

Task: Now consider COc1ccc(-c2oc3ncnc(N)c3c2-c2ccc(NC(=O)Nc3cc(C(F)(F)F)ccc3F)cc2)cc1 .
Output: 8.35

Task: Now consider COc1ccc(-c2cc(-c3c[nH]nc3-c3ccccn3)ccn2)cc1 .
Output: 3.08

---

Readings of inhibition for the listed compounds
# Tgt: Macrophage-stimulating protein receptor (Homo sapiens)
# Measurement Setup: at 0.1 µM
The answer is to be given in %; state only the numeric part.

INSERT INTO measurements (smi, tgt, assay_metric, observed) VALUES
  ('COC(=O)Nc1nc2ccc(Oc3ccc(NC(=O)Nc4cccc(Cl)c4)cc3)cc2[nH]1', 'Macrophage-stimulating protein receptor (Homo sapiens)', 'inhibition', 2.59),
  ('O=S(=O)(CCNCc1ccc(-c2ccc3ncnc(Nc4ccc(OCc5cccc(F)c5)c(Cl)c4)c3c2)o1)c1ccccc1', 'Macrophage-stimulating protein receptor (Homo sapiens)', 'inhibition', 1.71),
  ('COc1ccc(-c2cc(-c3c[nH]nc3-c3ccccn3)ccn2)cc1', 'Macrophage-stimulating protein receptor (Homo sapiens)', 'inhibition', 2.4),
  ('COc1cc(/C=N/Nc2ncnc3[nH]ncc23)ccc1O', 'Macrophage-stimulating protein receptor (Homo sapiens)', 'inhibition', -1.46),
  ('CS(=O)(=O)CCNCc1coc(-c2ccc3ncnc(Nc4ccc(OCc5ccccc5)cc4)c3c2)c1', 'Macrophage-stimulating protein receptor (Homo sapiens)', 'inhibition', -5.7),
  ('Cc1cccc2c1NC(=O)/C2=N\Nc1ccc(S(N)(=O)=O)cc1', 'Macrophage-stimulating protein receptor (Homo sapiens)', 'inhibition', 4.93);

Task: What value of measured inhibition is listed for c1ccc(COc2ccc(Nc3ncnc4ccc(-c5ccco5)cc34)cc2)cc1 ?
Output: 4.01

---

# Tgt: Inhibitor of nuclear factor kappa-B kinase subunit epsilon (Homo sapiens) (UniProt Q14164)
# Sequence (whole entry): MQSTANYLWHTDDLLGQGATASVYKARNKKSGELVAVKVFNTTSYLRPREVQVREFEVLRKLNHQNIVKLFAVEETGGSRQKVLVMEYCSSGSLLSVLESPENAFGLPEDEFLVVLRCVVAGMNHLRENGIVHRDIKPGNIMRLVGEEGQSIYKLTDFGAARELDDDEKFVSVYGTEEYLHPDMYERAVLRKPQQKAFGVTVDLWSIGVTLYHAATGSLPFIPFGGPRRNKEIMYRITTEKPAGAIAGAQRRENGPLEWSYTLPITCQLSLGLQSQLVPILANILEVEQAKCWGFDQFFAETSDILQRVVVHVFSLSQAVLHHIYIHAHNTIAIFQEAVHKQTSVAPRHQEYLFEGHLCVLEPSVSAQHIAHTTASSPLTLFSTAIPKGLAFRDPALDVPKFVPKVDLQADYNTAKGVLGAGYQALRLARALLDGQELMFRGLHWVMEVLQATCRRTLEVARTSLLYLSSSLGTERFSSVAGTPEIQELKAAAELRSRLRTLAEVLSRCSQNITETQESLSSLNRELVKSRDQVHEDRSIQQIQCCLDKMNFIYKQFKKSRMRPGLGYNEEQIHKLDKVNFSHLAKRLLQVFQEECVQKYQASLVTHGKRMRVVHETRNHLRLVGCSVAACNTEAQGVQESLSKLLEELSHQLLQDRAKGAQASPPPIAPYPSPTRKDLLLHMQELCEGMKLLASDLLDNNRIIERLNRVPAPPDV
# Measurement Setup: at 1 µM
Assay Metric: inhibition (%)
The answer is to be given in %; state only the numeric part.

INSERT INTO assay_data (compound, observed) VALUES
  ('COc1ccc(-c2oc3ncnc(N)c3c2-c2ccc(NC(=O)Nc3cc(C(F)(F)F)ccc3F)cc2)cc1', 9.69);

Task: Give recorded inhibition with Inhibitor of nuclear factor kappa-B kinase subunit epsilon (Homo sapiens) (UniProt Q14164) for the following compound: CN1CCC(n2cnc(-c3ccc(F)cc3)c2-c2ccnc(N)n2)CC1
Output: 7.06

Task: Now consider O=C(O[C@H]1CN[C@H](C#Cc2cc3ncnc(Nc4ccc(Cc5ccccc5)cc4)c3s2)C1)N1CCOCC1 .
Output: 3.15

Task: Now consider NS(=O)(=O)c1ccc(N/N=C2\C(=O)Nc3ccc4ncccc4c32)cc1 .
Output: 44.7
